Attribution: ChEMBL document CHEMBL1795209

assay: Acute toxicity in po dosed Swiss albino mouse administered as single dose; type: organism-based; conditions: in vivo

STRUCTURE: COc1ccc2c(c1)CCC(OC=O)=C2Cl
MTD: 300 mg/kg
